Quick reference for binding affinity ratio (IC50 of standard peptide / IC50 of test peptide) among some binders
Experimental target: HLA-A*0101 (human)
Test protocol: competition with 125I-labelled standard peptide for purified HLA-A*0101, gel filtration
Recorded endpoint: binding affinity ratio (IC50 of standard peptide / IC50 of test peptide)

| Binder | Assay result |
| --- | --- |
| WGEVKRQIY (modifications not checked) [… (PSM, position 725)] | 0.001 |
| TYELVEKFY (modifications not checked) [… (PSM, position 558)] | 0.001 |
| RGAVEPDRY (modifications not checked) [… (PSM, position 363)] | 0.0001 |
| RNETQHEPY (modifications not checked) [… (PAP, position 332)] | 0.0002 |

Ref: patent US20070020327A1
